The reader will find reported Hepatotoxicity (steatosis) values listed item by item below.
- recorded_conditions: human
readout_label: Hepatotoxicity (steatosis)

> print(dat)
                                   compound  measured.result
1      NNc1nnc(NN)c2ccccc12 [DIHYDRALAZINE]                1
2  NS(=O)(=O)c1cc2c(cc1Cl)N=CNS2(=O)=O [CHLOROTHIAZIDE]                0
3  NCC1CC(=O)N(Cc2ccccc2)C1 (centres undefined)                0
4                    C/C=C(/CC)C(=O)NC(N)=O                0
5  CC(C)c1nc(N(C)S(C)(=O)=O)nc(-c2ccc(F)cc2)c1/C=C/[C@@H](O)C[C@@H](O)CC(=O)O                0
6          CN(C)CCCN1c2ccccc2Sc2ccc(Cl)cc21                1
7  COc1ccc(-c2noc(CC(=O)O)c2-c2ccc(OC)cc2)cc1                0
8  O=C(COCC(=O)Nc1c(I)cc(I)c(C(=O)O)c1I)Nc1c(I)cc(I)c(C(=O)O)c1I                0
9  O=c1[nH]c(=O)n([C@H]2C[C@H](O)[C@@H](CO)O2)cc1F                2

###

- recorded_conditions: human
Where a SMILES comes first, the peptide text is derived from it. Bridges are numbered along the chain shown (N, C = ends). [ ]: non-standard residue; d: D form. The star is where a group is joined. Threoninol(2S,3R) = C[C@@H](O)[C@H](CO)N*
The reader will find reported Hepatotoxicity (choleostasis) values listed item by item below.
readout_label: Hepatotoxicity (choleostasis)

compound	measured_result
Fc1ccc(C(c2ccc(F)cc2)N2CCN(C/C=C/c3ccccc3)CC2)cc1 [FLUNARIZINE]	0
CC(C)NCC1CCc2cc(CO)c([N+](=O)[O-])cc2N1 (stereo not drawn) [OXAMNIQUINE]	0
CC(=O)Nc1cc([As](=O)(O)O)ccc1O [ACETARSONE]	0
CS[C@H]1SC[C@H]2C(=O)N(C)[C@@H](C(C)C)C(=O)OC[C@@H](NC(=O)c3cnc4ccccc4n3)C(=O)N[C@@H](C)C(=O)N(C)[C@@H]1C(=O)N(C)[C@@H](C(C)C)C(=O)OC[C@@H](NC(=O)c1cnc3ccccc3n1)C(=O)N[C@@H](C)C(=O)N2C [ECHINOMYCIN]	0
CCCC(C)C1(CC)C(=O)NC(=S)NC1=O (stereo not drawn) [THIOPENTAL]	0
NS(=O)(=O)Cc1noc2ccccc12 [ZONISAMIDE]	0
CCCCCNCC(N)=O [MILACEMIDE]	1
O=C1c2ccccc2C(=O)C1c1ccccc1 [PHENINDIONE]	11
CC(C)C[C@H](NC(=O)[C@@H](COC(C)(C)C)NC(=O)[C@H](Cc1ccc(O)cc1)NC(=O)[C@H](CO)NC(=O)[C@H](Cc1c[nH]c2ccccc12)NC(=O)[C@H](Cc1cnc[nH]1)NC(=O)[C@@H]1CCC(=O)N1)C(=O)N[C@@H](CCCNC(=N)N)C(=O)N1CCC[C@H]1C(=O)NNC(N)=O [GOSERELIN]	0
COc1ccc2cc(CCC(C)=O)ccc2c1 [NABUMETONE]	0
COc1cc2c(c(OC)c1OC)-c1ccc(OC)c(=O)cc1[C@@H](NC(C)=O)CC2 [COLCHICINE]	0
CCC[C@@H]1C[C@@H](C(=O)N[C@@H]([C@H]2O[C@H](SC)[C@H](O)[C@@H](O)[C@H]2O)[C@H](C)Cl)N(C)C1 [CLINDAMYCIN]	1
NCc1ccccc1CC(=O)N[C@@H]1C(=O)N2C(C(=O)O)=C(CSc3nnnn3CC(=O)O)CS[C@H]12 [CEFORANIDE]	1
NNC(=O)c1ccncc1 [ISONIAZID]	11
CN(C)CCCC1(c2ccc(F)cc2)OCc2cc(C#N)ccc21 (stereo not drawn) [CITALOPRAM]	1
CN(C)CCOc1ccc(/C(=C(/CCCl)c2ccccc2)c2ccccc2)cc1 [TOREMIFENE]	1
CC(C)Nc1cccnc1N1CCN(C(=O)c2cc3cc(NS(C)(=O)=O)ccc3[nH]2)CC1 [DELAVIRDINE]	0
COc1ccc([C@@H]2Sc3cc(Cl)ccc3N(CCN(C)C)C(=O)[C@@H]2OC(C)=O)cc1 [CLENTIAZEM]	0
CC[C@H]1OC(=O)[C@H](C)[C@@H](O[C@H]2C[C@@](C)(OC)[C@@H](O)[C@H](C)O2)[C@H](C)[C@@H](O[C@@H]2O[C@H](C)C[C@H](N(C)C)[C@H]2O)[C@](C)(O)C[C@](C)(F)C(=O)[C@H](C)[C@@H](O)[C@]1(C)O [FLURITHROMYCIN]	0
CO[C@@]1(NC(=O)CSCC#N)C(=O)N2C(C(=O)O)=C(CSc3nnnn3C)CS[C@@H]21 [CEFMETAZOLE]	0
CC1(C)S[C@@H]2[C@H](NC(=O)[C@H](N)c3ccc(O)cc3)C(=O)N2[C@H]1C(=O)O [AMOXICILLIN]	7
Cc1c(-c2ccccc2)oc2c(C(=O)OCCN3CCCCC3)cccc2c1=O [FLAVOXATE]	0
NCC[C@H](O)C(=O)N[C@@H]1C[C@H](N)[C@@H](O[C@H]2O[C@H](CN)[C@@H](O)[C@H](O)[C@H]2O)[C@H](O)[C@H]1O[C@H]1O[C@H](CO)[C@@H](O)[C@H](N)[C@H]1O [AMIKACIN]	0
O=C(O)c1ccccc1C(=O)Nc1ccc(S(=O)(=O)Nc2nccs2)cc1 [PHTHALYLSULFATHIAZOLE]	0
C[C@@H](O)[C@H](CO)NC(=O)[C@@H]1CSSC[C@H](NC(=O)[C@H](N)Cc2ccccc2)C(=O)N[C@@H](Cc2ccccc2)C(=O)N[C@H](Cc2c[nH]c3ccccc23)C(=O)N[C@@H](CCCCN)C(=O)N[C@@H]([C@@H](C)O)C(=O)N1 (H-[dF]CF[dW]KTC-{Threoninol(2S,3R)}; disulfide 2-7)	1
COc1ccc2c(c1)c(CC(=O)OCC(=O)O)c(C)n2C(=O)c1ccc(Cl)cc1 [ACEMETACIN]	1
N[C@@H]1CON=C1O [CYCLOSERINE]	0
COc1cccc2c1C(=O)c1c(O)c3c(c(O)c1C2=O)C[C@@](O)(C(=O)CO)C[C@@H]3O[C@H]1C[C@H](N)[C@H](O)[C@H](C)O1 [DOXORUBICIN]	3

###

- recorded_conditions: human
The reader will find reported Hepatotoxicity (choleostasis) values listed item by item below.
readout_label: Hepatotoxicity (choleostasis)

> print(dat)
                                   molecule                  readout.label  measured.result
1                       O=CN(O)CCCP(=O)(O)O  Hepatotoxicity (choleostasis)                0
2  CN(C)CCN1C(=O)c2cccc3cc(N)cc(c23)C1=O [AMONAFIDE]  Hepatotoxicity (choleostasis)                0
3       Cc1cc2c(s1)Nc1ccccc1N=C2N1CCN(C)CC1  Hepatotoxicity (choleostasis)                1
4  CC(/C=C1\SC(=S)N(CC(=O)O)C1=O)=C\c1ccccc1  Hepatotoxicity (choleostasis)                0
5  C[C@]1(O)CC[C@H]2[C@@H]3CCC4=CC(=O)CC[C@]4(C)[C@@]3(F)[C@@H](O)C[C@@]21C  Hepatotoxicity (choleostasis)                2
6  CC(=O)[C@H]1CC[C@H]2[C@@H]3CC[C@@H]4C[C@H](O)CC[C@]4(C)[C@H]3CC[C@]12C  Hepatotoxicity (choleostasis)                0
7  COC(=O)C1=C(C)NC(C)=C(C(=O)OCC(C)C)C1c1ccccc1[N+](=O)[O-] (centres undefined)  Hepatotoxicity (choleostasis)                0
8  CCCCC1C(=O)NN(c2ccccc2)C1=O (centres undefined)  Hepatotoxicity (choleostasis)                0
9  CO[C@@]1(NC(=O)C2SC(=C(C(N)=O)C(=O)O)S2)C(=O)N2C(C(=O)O)=C(CSc3nnnn3C)CS[C@@H]21 (some centres undefined)  Hepatotoxicity (choleostasis)                0

###

- recorded_conditions: human, serum, 4383 h
readout_label: Hepatotoxicity (chronic liver disease)

compound	measured_result
CCC1(C)CC(=O)NC1=O (configuration not stated) [ETHOSUXIMIDE]	0
CCOC(=O)/C=C(C)/C=C/C=C(C)/C=C/c1c(C)cc(OC)c(C)c1C [ETRETINATE]	7
CN(C)CCN(Cc1ccccc1)c1ccccn1	0
CC(C(=O)O)c1ccc(C(=O)c2ccccc2)s1 (configuration not stated)	0
CCNNC(=O)[C@@H]1[C@H](c2cc(OC)c(OC)c(OC)c2)c2cc3c(cc2[C@H](O)[C@H]1CO)OCO3 [MITOPODOZIDE]	0
CN[C@@H]1[C@H](O[C@H]2[C@H](O[C@H]3[C@H](O)[C@@H](O)[C@H](NC(=N)N)[C@@H](O)[C@@H]3NC(=N)N)O[C@@H](C)[C@]2(O)CO)O[C@@H](CO)[C@H](O)[C@H]1O [DIHYDROSTREPTOMYCIN]	0
CCCNCC(O)COc1ccccc1C(=O)CCc1ccccc1 (configuration not stated)	0
CCN(CC)CC[n+]1ccc2c(C)c3[nH]c4ccc(O)cc4c3c(C)c2c1.[Cl-] [DATELLIPTIUM CHLORIDE]	0
Nc1ncn([C@@H]2O[C@H](CO)[C@@H](O)[C@H]2O)c(=O)n1	0
C[C@H]1COc2c(N3CCN(C)CC3)c(F)cc3c(=O)c(C(=O)O)cn1c23.C[C@H]1COc2c(N3CCN(C)CC3)c(F)cc3c(=O)c(C(=O)O)cn1c23.O	0
NC(CO)(CO)CO	0
O=C(O[C@@H]1C[C@@H]2C[C@H]3C[C@H](C1)N2CC3=O)c1c[nH]c2ccccc12	0
O=c1[nH]cnc2c1ncn2[C@H]1CC[C@@H](CO)O1	1
N=C(N)NCC1COc2ccccc2O1 (configuration not stated)	0
c1ccc2[nH]c(-c3cscn3)nc2c1	0
CC1(C)NC(=O)N(c2ccc([N+](=O)[O-])c(C(F)(F)F)c2)C1=O [NILUTAMIDE]	0
CC(=O)O[C@H]1C[C@@]2(C)[C@@H](C[C@@H](O)[C@H]3[C@@]4(C)CC[C@@H](O)[C@@H](C)[C@@H]4CC[C@@]32C)/C1=C(\CCC=C(C)C)C(=O)O	0
